# Test system: Echinochloa crus-galli
# Procedure Summary: Test Example 2: herbicidal effect test by treatment during growing period in paddy rice cultivation (seven days after seeding)
# Format: in vivo
# Experimental Conditions: 120 g/10a active ingredient, assessed 14 days after treatment, dry weight vs untreated area
Reported Metric: Herbicidal rate (%) Echinochloa crus-galli

> print(dat)
                                    compound  units.text  result
 1  CCC(C)Cn1oc(=O)c(Cc2ccccc2N(C(=O)OCC(C)C)S(=O)(=O)C(F)(F)F)c1C (stereo not drawn) [Compound 1-674]           %     100
 2  CCCCC(C)n1oc(=O)c(Cc2ccccc2N(S(=O)(=O)C(F)(F)F)S(=O)(=O)C(F)(F)F)c1C (stereo not drawn) [Compound 1-977]           %     100
 3  CCC(CC)n1oc(=O)c(Cc2ccccc2N(S(=O)(=O)C(F)(F)F)S(=O)(=O)C(F)(F)F)c1C [Compound 1-965]           %     100
 4  CCC(C)n1oc(=O)c(Cc2ccccc2N(C(=O)OCC(C)C)S(=O)(=O)C(F)(F)F)c1C (stereo not drawn) [Compound 1-669]           %      90
 5  CSCCn1oc(=O)c(Cc2ccccc2N(C(=O)OC(C)C)S(=O)(=O)C(F)(F)F)c1C [Compound 1-652]           %      90
 6  Cc1c(Cc2ccccc2N(S(=O)(=O)C(F)(F)F)S(=O)(=O)C(F)(F)F)c(=O)on1Cc1ccc(F)cc1Cl [Compound 1-1028]           %       0
 7  CCC(C)n1oc(=O)c(Cc2ccccc2N(C(=O)C(C)C)S(=O)(=O)C(F)(F)F)c1C (stereo not drawn) [Compound 1-330]           %      90
 8  Cc1c(Cc2ccccc2NS(=O)(=O)C(F)(F)F)c(=O)on1CCSC(C)C [Compound 1-166]           %     100
 9  Cc1c(Cc2ccccc2N(C(=O)OCC(C)C)S(=O)(=O)C(F)(F)F)c(=O)on1C [Compound 1-666]           %     100
10  CCS(=O)(=O)N(c1ccccc1Cc1c(C)n(C(C)c2ccccc2)oc1=O)S(=O)(=O)C(F)(F)F (stereo not drawn) [Compound 1-917]           %      90
11  CCN(c1ccccc1Cc1c(C)n(CC(C)C)oc1=O)S(=O)(=O)C(F)(F)F [Compound 1-263]           %      90
12  CCC(C)n1oc(=O)c(Cc2ccccc2N(C(=O)c2ccc(Cl)cc2)S(=O)(=O)C(F)(F)F)c1C (stereo not drawn) [Compound 1-484]           %      90
13  Cc1c(Cc2ccccc2N(S(=O)(=O)C(F)(F)F)S(=O)(=O)C(F)(F)F)c(=O)on1C(C)c1ccc(OC(F)(F)F)cc1 (stereo not drawn) [Compound 1-1036]           %      40
14  Cc1c(Cc2ccccc2NS(=O)(=O)C(F)(F)F)c(=O)on1Cc1ccc(F)c(Cl)c1 [Compound 1-202]           %      40
15  CCC(=O)N(c1ccccc1Cc1c(C)n(CCSC)oc1=O)S(=O)(=O)C(F)(F)F [Compound 1-320]           %      90

Provenance of the data: patent US11109593B2
